Catalogue of IC50 readings, one per entry.
# system_tested: CDK12 (aa686-1082)/Cyclin K (Homo sapiens (Human))
# Sequence (Q9NYV4 686-1082): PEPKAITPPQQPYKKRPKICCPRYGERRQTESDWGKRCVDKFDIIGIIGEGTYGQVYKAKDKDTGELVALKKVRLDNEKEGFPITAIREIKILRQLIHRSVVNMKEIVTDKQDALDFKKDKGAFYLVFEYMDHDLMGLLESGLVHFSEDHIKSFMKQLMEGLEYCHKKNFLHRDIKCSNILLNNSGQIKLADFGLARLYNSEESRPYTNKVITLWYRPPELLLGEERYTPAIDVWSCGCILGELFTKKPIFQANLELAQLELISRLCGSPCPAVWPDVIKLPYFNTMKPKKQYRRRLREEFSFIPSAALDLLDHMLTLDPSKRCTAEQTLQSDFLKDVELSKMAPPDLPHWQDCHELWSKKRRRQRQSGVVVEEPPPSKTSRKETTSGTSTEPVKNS
# Sequence (O75909 whole entry partner, the tested form may be a part): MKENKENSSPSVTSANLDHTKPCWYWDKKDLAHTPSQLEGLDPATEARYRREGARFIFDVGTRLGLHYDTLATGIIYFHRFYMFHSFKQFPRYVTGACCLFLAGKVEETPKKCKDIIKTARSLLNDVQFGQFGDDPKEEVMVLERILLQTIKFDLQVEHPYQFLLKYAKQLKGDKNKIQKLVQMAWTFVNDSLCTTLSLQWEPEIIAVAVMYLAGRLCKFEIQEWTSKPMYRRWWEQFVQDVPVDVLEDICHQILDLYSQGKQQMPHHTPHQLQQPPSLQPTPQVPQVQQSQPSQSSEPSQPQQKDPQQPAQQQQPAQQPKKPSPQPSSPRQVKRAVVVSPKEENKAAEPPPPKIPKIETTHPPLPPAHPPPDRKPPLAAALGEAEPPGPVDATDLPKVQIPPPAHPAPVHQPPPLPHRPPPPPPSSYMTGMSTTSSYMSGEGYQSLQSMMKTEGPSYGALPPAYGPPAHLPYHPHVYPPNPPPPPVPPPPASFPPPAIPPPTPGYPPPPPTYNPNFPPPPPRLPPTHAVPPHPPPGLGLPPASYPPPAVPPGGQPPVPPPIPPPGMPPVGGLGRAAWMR
# assay_explanation: Enzyme activity test, mobility shift assay (Table 1)
# Type: biochemical
# measurement_parameters: 2 mM ATP; read-out: CDK12 kinase IC50

Please review the entries below; each comes with its answer.
O=C1CCCN1c1ccc2c(-c3nc(N[C@H]4CCCNC4)ncc3C(F)(F)F)c[nH]c2c1Br [Example T-04] :: > 0.5 µM
COC(=O)Nc1ccc2c(-c3nc(N[C@H]4CCC[C@H](N)C4)ncc3C(F)(F)F)c[nH]c2c1Br [Example T-20] :: > 0.5 µM
COC(=O)Nc1ccc2c(-c3nc(N[C@H]4CC[C@@H](C)NC4)ncc3C(F)(F)F)c[nH]c2c1C1CC1 [Example T-130] :: > 0.5 µM
COC(=O)Nc1ccc2c(-c3nc(N[C@H]4CCC(C)(C)NC4)ncc3C(F)(F)F)c[nH]c2c1C1CC(F)(F)C1 [Example T-106] :: > 0.5 µM
CCOC(=O)Nc1ccc2c(-c3nc(N[C@H]4CCCNC4)ncc3C(F)(F)F)c[nH]c2c1Br [Example T-42] :: > 0.5 µM

COC(=O)Nc1ccc2c(-c3nc(N[C@H]4CC[C@@H](C)NC4)ncc3C(F)(F)F)c[nH]c2c1OCC(F)(F)F [Example T-151] yielded IC50 of > 0.5 µM

CCOC(=O)Nc1ccc2c(-c3nc(N[C@H]4CCC(C)(C)NC4)ncc3C(F)(F)F)c[nH]c2c1C(C)(F)F [Example T-153] yielded IC50 of > 0.5 µM

COC(=O)Nc1ccc2c(-c3nc(N[C@@H]4CCC[C@H](N)C4)ncc3C(F)(F)F)c[nH]c2c1Br [Example T-22] yielded IC50 of > 0.5 µM

COC(=O)N(C)c1ccc2c(-c3nc(N[C@H]4CCCNC4)ncc3C(F)(F)F)c[nH]c2c1C(F)(F)F [Example T-164] yielded IC50 of > 0.5 µM

COC(=O)N(C)c1ccc2c(-c3nc(N[C@H]4CCCNC4)ncc3C(F)(F)F)c[nH]c2c1Br [Example T-102] yielded IC50 of > 0.5 µM

COC(=O)Nc1ccc2c(-c3nc(N[C@H]4CCCNC4)ncc3C(F)(F)F)c[nH]c2c1C1CC1 [Example T-17] yielded IC50 of > 0.5 µM

CC1(C)COC(Nc2ccc3c(-c4nc(N[C@H]5CCCNC5)ncc4C(F)(F)F)c[nH]c3c2Br)=N1 [Example T-07] yielded IC50 of > 0.5 µM

COC(=O)Nc1ccc2c(-c3nc(N[C@H]4CCCNC4)ncc3C(F)(F)F)c[nH]c2c1C [Example T-52] yielded IC50 of > 0.5 µM

COC(=O)Nc1ccc2c(-c3nc(N[C@H]4CCC5(CC5)NC4)ncc3C(F)(F)F)c[nH]c2c1OC(F)F [Example T-154] yielded IC50 of > 0.5 µM

COC(=O)Nc1ccc2c(-c3nc(N[C@H]4CCC[C@@H](O)C4)ncc3C(F)(F)F)c[nH]c2c1Br [Example T-29] yielded IC50 of > 0.5 µM

COC(=O)Nc1ccc2c(-c3nc(NC4CC5(CC(N)C5)C4)ncc3C(F)(F)F)c[nH]c2c1Br (stereo not shown) [Example T-31] yielded IC50 of > 0.5 µM

COC(=O)Nc1ccc2c(-c3nc(N[C@H]4CCCNC4)ncc3C(F)(F)F)c[nH]c2c1-c1ccccc1 [Example T-60] yielded IC50 of > 0.5 µM

COC(=O)Nc1ccc2c(-c3nc(N[C@H]4CCCNC4)ncc3C(F)(F)F)c[nH]c2c1-c1cnn(C)c1 [Example T-68] yielded IC50 of > 0.5 µM
